- Tested Target: T1, 4H3782-bN
- T1 chain: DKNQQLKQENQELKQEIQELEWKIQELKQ
- Experiment Notes: two-hybrid library CCNG1;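 further: natural log of median RNA to DNA barcode read ratio; higher means stronger binding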
Metric Name: interaction score
The answer should be written as a number, with no unit following it.

Reference set (2 entries):
{"Binder": "DEIQQLEQKIQELKQEIQELKWENQELEQ [4H331-bN]", "Assay Value": -0.492}
{"Binder": "DKNQQLEQKIQELKQKIQELEWENQELEQ [4H3427-bN]", "Assay Value": -0.306}

Item under review: DKNQQLEQEIQELEQKIQELEWKNQELKQ [4H3112-bN] . Reported interaction score?
-0.541

// same read-out, input: DKIQQLKQEIQELEQEIQELKWKNQELKQ [4H2576-bN]
-0.233

Now give it for DKNQQLKQEIQELEQENQELEWKIQELKQ [4H3606-bN] too.
-0.77
